Molecular target: T1, RBFOX1 RRM (Homo sapiens, UniProt Q9NWB1 109-208)
T1 sequence: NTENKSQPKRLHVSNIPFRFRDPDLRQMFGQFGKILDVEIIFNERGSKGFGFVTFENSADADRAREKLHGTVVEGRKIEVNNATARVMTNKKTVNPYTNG
Experiment: EMSA; HiTS-Eq, 1 nM pool, 10 min; buffer printed only for the single-RNA assays: 10 mM Tris pH 7.5, 150 mM NaCl, 3.4 mM EDTA, 0.001% NP-40, 30 C
Conditions: tags: His6 N-terminal (pET28a); label: 5' 32P
The full ranking holds about 16,000 sequences; the median of “ka relative to ugcaugu” is about 0.0091, and the highest 2% start at about 0.032. This excerpt belongs to a sample that is enriched for the highest values.
# binding signal listing for each entry below

Worked set:
CGGCUAG (DNA:RNA) RNA: GGGAGACCGGAAUUCAGAUUGUCCCGGCUAGUUAAAUCCCGUCGUAGCCACCA DNA 1: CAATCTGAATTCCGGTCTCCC DNA 2: TGGTGGCTACGACGGGATT	0.02 KA relative to UGCAUGU
CCGCACG (DNA:RNA) RNA: GGGAGACCGGAAUUCAGAUUGUCCCCGCACGUUAAAUCCCGUCGUAGCCACCA DNA 1: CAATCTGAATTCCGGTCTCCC DNA 2: TGGTGGCTACGACGGGATT	0.0481 KA relative to UGCAUGU
UAUCCAA (DNA:RNA) RNA: GGGAGACCGGAAUUCAGAUUGUCCUAUCCAAUUAAAUCCCGUCGUAGCCACCA DNA 1: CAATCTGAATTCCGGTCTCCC DNA 2: TGGTGGCTACGACGGGATT	0.00131 KA relative to UGCAUGU
GGGCGCU (DNA:RNA) RNA: GGGAGACCGGAAUUCAGAUUGUCCGGGCGCUUUAAAUCCCGUCGUAGCCACCA DNA 1: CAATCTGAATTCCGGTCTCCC DNA 2: TGGTGGCTACGACGGGATT	0.0216 KA relative to UGCAUGU

// next entry
Query string: // lookup binding signal for UGGGCUU (DNA:RNA) RNA: GGGAGACCGGAAUUCAGAUUGUCCUGGGCUUUUAAAUCCCGUCGUAGCCACCA DNA 1: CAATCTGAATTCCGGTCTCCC DNA 2: TGGTGGCTACGACGGGATT
Result string: 0.0356 KA relative to UGCAUGU

These data points were gathered from paper PMC9911399.
